# Test system: Leukemia cell line MV4-11
# Assay remarks: Growth-inhibitory activity by MTS method
# Type: cell-based
# Condition label: Homo sapiens; MV4-11 cells, 10 D; read-out: MTS 10 D
pIC50: −log10 of the molar value.
Property: pIC50

NC1CCC(NC2CC2c2ccc3c(c2)CCN3S(=O)(=O)c2ccccc2)CC1 (stereo not drawn) [Compound A19]; 5.94
O=S(=O)(c1ccccc1)N1CCc2cc([C@@H]3C[C@H]3NC3CCNCC3)ccc21 (relative stereo) [Compound A15]; 6.74
O=S(=O)(c1ccccc1)N1CCc2cc([C@@H]3C[C@H]3NCCC3CCNCC3)ccc21 (relative stereo) [Compound A16]; 5.92
O=C(Cc1ccccc1)N1CCc2cc([C@@H]3C[C@H]3NCC3CCNCC3)ccc21 (relative stereo) [Compound A49]; 5.49
CC(C)(C)C(=O)N1CCc2cc([C@@H]3C[C@H]3NCC3CCNCC3)ccc21 (relative stereo) [Compound A58]; 5.91
O=C(O)c1ccc(CN2CCC(CN[C@@H]3C[C@H]3c3ccccc3)CC2)cc1 [GSK2879552, GSK-2879552, reference compound]; 5.74

P: O=C(c1ccccc1)N1CCc2cc([C@@H]3C[C@H]3NCC3CCNCC3)ccc21 (relative stereo) [Compound A45]
Q: O=S(=O)(c1ccccc1)N1CCc2cc(C3CC3NCc3c[nH]c4ccccc34)ccc21 (stereo not drawn) [Compound A8]
R: O=S(=O)(c1ccccc1)N1CCc2cc(C3CC3NCC3CCNCC3)ccc21 (stereo not drawn) [Compound A14]
## Task Rank ascending by pIC50. Ranked list of labels, please, in the requested order.
## Result P, R, Q

###

# Tested on: Leukemia cell line MV4-11
# Assay remarks: Growth-inhibitory activity by MTS method
# Assay type: cell-based
# Condition label: Homo sapiens; MV4-11 cells, 3 D; read-out: MTS 3 D
pIC50: −log10 of the molar value.
Property: pIC50

Use the examples below as a reference point.
O=S(=O)(c1ccccc1)N1CCc2cc([C@@H]3C[C@H]3NC3CCNCC3)ccc21 (relative stereo) [Compound A15]; 5.47
O=S(=O)(c1ccccc1)N1CCc2cc(C3CC3NCC3CCNCC3)ccc21 (stereo not drawn) [Compound A14]; 5.10
NC1CCC(NC2CC2c2ccc3c(c2)CCN3S(=O)(=O)c2ccccc2)CC1 (stereo not drawn) [Compound A19]; 5.07

I: O=S(=O)(c1ccccc1)N1CCc2cc(C3CC3NCc3c[nH]c4ccccc34)ccc21 (stereo not drawn) [Compound A8]
II: O=S(=O)(c1ccccc1)N1CCc2cc([C@@H]3C[C@H]3NCCC3CCNCC3)ccc21 (relative stereo) [Compound A16]
## Task Compare I and II by numeric pIC50 and name the larger one. Return value: the label identifying the chosen record.
## Result I

###

# Study target: human recombinant MAOB (Homo sapiens (Human), UniProt P27338)
# Sequence (P27338 whole entry): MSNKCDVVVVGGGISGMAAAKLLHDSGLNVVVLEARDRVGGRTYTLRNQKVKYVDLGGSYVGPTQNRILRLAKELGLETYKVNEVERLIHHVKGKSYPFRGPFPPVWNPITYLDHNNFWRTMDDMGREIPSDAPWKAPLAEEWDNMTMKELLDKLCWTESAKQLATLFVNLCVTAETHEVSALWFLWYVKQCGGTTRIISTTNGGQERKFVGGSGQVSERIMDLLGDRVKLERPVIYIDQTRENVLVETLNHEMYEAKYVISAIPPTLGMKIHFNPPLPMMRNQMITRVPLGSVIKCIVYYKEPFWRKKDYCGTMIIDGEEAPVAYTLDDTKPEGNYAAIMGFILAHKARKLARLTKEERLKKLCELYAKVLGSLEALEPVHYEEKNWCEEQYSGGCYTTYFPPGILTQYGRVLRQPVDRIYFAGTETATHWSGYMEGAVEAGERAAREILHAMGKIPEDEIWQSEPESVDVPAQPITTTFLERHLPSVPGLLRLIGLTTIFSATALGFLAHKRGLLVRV
# Assay remarks: MAOB in vitro activity experiment (MAO-Glo)
Recorded IC50, one value per entry.

Examples from the recorded data:
O=S(=O)(c1cccc(C(F)(F)F)c1)N1CCc2cc([C@@H]3C[C@H]3NCC3CCNCC3)ccc21 (relative stereo); 86.2 µM
O=S(=O)(c1ccccc1)N1CCc2cc([C@@H]3C[C@H]3NC3CC4(CCNCC4)C3)ccc21 (relative stereo); > 100 µM
CCC(=O)N1CCc2cc([C@@H]3C[C@H]3NCC3CCNCC3)ccc21 (relative stereo); > 100 µM
CC1(CN[C@@H]2C[C@H]2c2ccc3c(c2)CCN3S(=O)(=O)c2ccccc2)CCNCC1 (relative stereo); > 100 µM
CCCCC(=O)N1CCc2cc([C@@H]3C[C@H]3NCC3CCNCC3)ccc21 (relative stereo); > 100 µM

## Task Answer with the recorded IC50 of O=S(=O)(c1cccc(Cl)c1)N1CCc2cc([C@@H]3C[C@H]3NCC3CCNCC3)ccc21 (relative stereo) only.
## Result 40.9 µM

## Task Entry O=S(=O)(c1ccccc1)N1CCc2cc([C@@H]3C[C@H]3NC3CCNCC3)ccc21 (relative stereo) needs its IC50 filled in; supply it.
## Result > 100 µM

## Task Give the value of IC50 reported for the following: CC(C)(C)C(=O)N1CCc2cc([C@@H]3C[C@H]3NCC3CCNCC3)ccc21 (relative stereo)
## Result 70.7 µM

###

Documented melting point across a set of compounds

## Task Give the reported value of melting point for this record: O=C(C1CCCCC1)N1CCc2cc([C@@H]3C[C@H]3NCC3CCNCC3)ccc21 (relative stereo)
## Result 166 to 168 °C

## Task Give melting point for the following compound: N[C@@H]1C[C@H]1c1ccc2c(c1)CCN2S(=O)(=O)c1ccccc1 (relative stereo)
## Result 190 to 193 °C

## Task Consider the compound O=C(OCc1ccccc1)N1CCC(CN[C@@H]2C[C@H]2c2ccc3c(c2)CCN3S(=O)(=O)c2ccccc2)CC1 (relative stereo) . State its measured melting point.
## Result 90 to 92 °C

## Task Read the entry O=C(O)c1ccc(CN2CCC(CNC3CC3c3ccc4c(c3)CCN4S(=O)(=O)c3ccccc3)CC2)cc1 (stereo not drawn) and write its reported melting point.
## Result 190 to 192 °C

## Task Supply reported melting point belonging to this compound: O=C(OCc1ccccc1)N1CCc2cc([C@@H]3C[C@H]3NCC3CCNCC3)ccc21 (relative stereo)
## Result 215 to 218 °C

## Task Answer with the recorded melting point of CC(C)(C)OC(=O)N1CCC(CN[C@@H]2C[C@H]2c2ccc3c(c2)CCN3S(=O)(=O)c2ccccc2)CC1 (relative stereo) only.
## Result 60 to 61 °C

## Task Output measured melting point for this item: O=S(=O)(c1ccc(C(F)(F)F)cc1)N1CCc2cc([C@@H]3C[C@H]3NCC3CCNCC3)ccc21 (relative stereo)
## Result 217 to 221 °C

## Task Read the entry O=C(c1ccc(-c2ccccc2)cc1)N1CCc2cc([C@@H]3C[C@H]3NCC3CCNCC3)ccc21 (relative stereo) and write its reported melting point.
## Result 179 to 180 °C

## Task Please indicate melting point recorded for CC(C)(C)OC(=O)N1CCC(C(=O)N[C@@H]2C[C@H]2c2ccc3c(c2)CCN3S(=O)(=O)c2ccccc2)CC1 (relative stereo)
## Result 146 to 148 °C

###

# Study target: human recombinant MAOB (Homo sapiens (Human), UniProt P27338)
# Assay remarks: MAOB in vitro activity experiment (MAO-Glo)
Property: IC50 (µM)

O=S(=O)(c1ccc(-c2ccccc2)cc1)N1CCc2cc([C@@H]3C[C@H]3NCC3CCNCC3)ccc21 (relative stereo); 89.4

1: O=S(=O)(N1CCc2cc([C@@H]3C[C@H]3NCC3CCNCC3)ccc21)C(F)(F)F (relative stereo)
2: O=S(=O)(c1ccccc1)N1CCc2cc([C@@H]3C[C@H]3NCC3CNC3)ccc21 (relative stereo)
3: O=S(=O)(c1ccc2ccccc2c1)N1CCc2cc([C@@H]3C[C@H]3NCC3CCNCC3)ccc21 (relative stereo)
4: O=C(c1ccccc1)N1CCc2cc([C@@H]3C[C@H]3NCC3CCNCC3)ccc21 (relative stereo)
## Task Please list these in order of increasing IC50. Thank you! Answer by naming the labels in the order asked.
## Result 1, 2, 4, 3

###

Below, each entry is listed alongside its reported pIC50.
# Study target: human recombinant MAOB (Homo sapiens (Human))
# Assay remarks: MAOB in vitro activity experiment (MAO-Glo)
# Type: biochemical
pIC50: −log10 of the molar value.

O=S(=O)(c1ccc(C(F)(F)F)cc1)N1CCc2cc([C@@H]3C[C@H]3NCC3CCNCC3)ccc21 (relative stereo); < 4.00
O=S(=O)(c1ccccc1)N1CCc2cc([C@@H]3C[C@H]3NCC3CCN(Cc4ccccc4)CC3)ccc21 (relative stereo); < 4.00
COCCC(=O)N1CCc2cc([C@@H]3C[C@H]3NCC3CCNCC3)ccc21 (relative stereo); < 4.00

## Task In one line, give reported pIC50 of the entry O=C(O)c1ccc(CN2CCC(CN[C@@H]3C[C@H]3c3ccccc3)CC2)cc1 [GSK2879552, GSK-2879552, reference compound] .
## Result < 4.00

## Task Consider the compound CC(C)(C)OC(=O)N1CCC(CN[C@@H]2C[C@H]2c2ccc3c(c2)CCN3S(=O)(=O)c2ccccc2)CC1 (relative stereo) and give its recorded pIC50.
## Result < 4.00

## Task Answer with the recorded pIC50 for the compound listed here: O=C(Cc1ccccc1)N1CCc2cc([C@@H]3C[C@H]3NCC3CCNCC3)ccc21 (relative stereo)
## Result < 4.00

###

# Study target: human recombinant MAOB (Homo sapiens (Human), UniProt P27338)
# Assay remarks: MAOB in vitro activity experiment (MAO-Glo)
Property: IC50 (µM)
Number in µM, nothing else.

Take a look at these entries with their results.
O=C(c1ccc(-c2ccccc2)cc1)N1CCc2cc([C@@H]3C[C@H]3NCC3CCNCC3)ccc21 (relative stereo) [Compound A47]; 7.33
O=C(c1cccc(C(F)(F)F)c1)N1CCc2cc([C@@H]3C[C@H]3NCC3CCNCC3)ccc21 (relative stereo) [Compound A48]; 42.6

Consider the additional compound presented here.
## Task Report IC50 for O=C(OCc1ccccc1)N1CCc2cc([C@@H]3C[C@H]3NCC3CCNCC3)ccc21 (relative stereo) [Compound A50]
## Result 10.7
